Molecular target: Androgen Receptor (Homo sapiens)
Construct: endogenous in cells; host or cells: VCaP cells
Sequence (P10275 whole entry): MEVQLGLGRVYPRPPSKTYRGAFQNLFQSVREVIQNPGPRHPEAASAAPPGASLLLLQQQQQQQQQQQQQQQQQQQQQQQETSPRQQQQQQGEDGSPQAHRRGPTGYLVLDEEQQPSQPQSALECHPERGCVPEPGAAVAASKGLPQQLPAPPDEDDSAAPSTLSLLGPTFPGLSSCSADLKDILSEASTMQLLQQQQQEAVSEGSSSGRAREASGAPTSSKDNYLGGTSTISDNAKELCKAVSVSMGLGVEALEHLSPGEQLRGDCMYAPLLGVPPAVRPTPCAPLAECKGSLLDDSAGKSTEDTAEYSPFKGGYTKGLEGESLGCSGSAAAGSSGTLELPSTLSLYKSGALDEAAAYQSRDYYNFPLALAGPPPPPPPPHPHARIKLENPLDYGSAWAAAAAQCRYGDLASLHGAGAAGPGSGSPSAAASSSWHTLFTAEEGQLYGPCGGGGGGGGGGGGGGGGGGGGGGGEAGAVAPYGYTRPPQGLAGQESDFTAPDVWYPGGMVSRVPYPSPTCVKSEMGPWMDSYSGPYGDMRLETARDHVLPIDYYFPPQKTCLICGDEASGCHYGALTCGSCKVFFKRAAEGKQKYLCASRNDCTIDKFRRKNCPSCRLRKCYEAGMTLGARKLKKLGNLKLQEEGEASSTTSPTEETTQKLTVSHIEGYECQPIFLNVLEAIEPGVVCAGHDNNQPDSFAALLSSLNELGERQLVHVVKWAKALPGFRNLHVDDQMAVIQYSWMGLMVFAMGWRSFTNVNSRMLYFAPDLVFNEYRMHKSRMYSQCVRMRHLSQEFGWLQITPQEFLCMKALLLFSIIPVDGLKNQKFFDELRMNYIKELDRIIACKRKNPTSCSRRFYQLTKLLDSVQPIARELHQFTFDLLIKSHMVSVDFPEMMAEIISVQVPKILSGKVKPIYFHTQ
Experiment: Androgen Receptor ELISA assay (PathScan AR ELISA) in VCaP cells: AR degradation, Dmax and DC50
Format: cell-based
Conditions: VCaP, read-out: VCaP Dmax (%)
Measured Dmax of individual entries
MEASURED_QUANTITY: Dmax

COMPOUND: Cc1ncsc1-c1ccc(CNC(=O)[C@@H]2C[C@@H](O)CN2C(=O)[C@@H](NC(=O)CCCOCCN2CCC(c3ccc(N4C(=S)N(c5ccc(C#N)c(C(F)(F)F)c5)C(=O)C4(C)C)cc3)CC2)C(C)(C)C)cc1 [Example 309]
ASSAYED_SYSTEM: Androgen Receptor (Homo sapiens)
MEASURED_QUANTITY: Dmax
RESULT: 26 to 50%
--
COMPOUND: Cc1ncoc1-c1ccc(CNC(=O)[C@@H]2C[C@@H](O)CN2C(=O)[C@@H](NC(=O)COCCCOCCCCOc2ccc(N3C(=S)N(c4ccc(C#N)c(C(F)(F)F)c4)C(=O)C3(C)C)cc2)C(C)(C)C)cc1 [Example 35]
ASSAYED_SYSTEM: Androgen Receptor (Homo sapiens)
MEASURED_QUANTITY: Dmax
RESULT: 51 to 70%

----------
Measured DC50 of individual entries
Biological target: Androgen Receptor (Homo sapiens)
Construct: endogenous in cells; host or cells: VCaP cells
Experiment: Androgen Receptor ELISA assay (PathScan AR ELISA) in VCaP cells: AR degradation, Dmax and DC50
Format: cell-based
Details: VCaP cells; Table 36; read-out: VCaP DC50
Experimental: 1. Androgen Receptor ELISA Assay. The protocols used with VCaP cells are described below. The androgen receptor ELISA assay was performed using PathScan AR ELISA (Cell Signaling Catalog #12850) according to the following assay steps: […]
MEASURED_QUANTITY: DC50

MOLECULE: Cc1ncsc1-c1ccc([C@H](C)NC(=O)C2C[C@@H](O)CN2C(=O)[C@@H](NC(=O)CN2C[C@@H]3C[C@H]2CN3CCCc2ccc(C(=O)N[C@H]3C(C)(C)[C@H](Oc4ccc(C#N)c(Cl)c4)C3(C)C)cc2)C(C)(C)C)cc1 (stereo partly shown) [Example 807]
RESULT: < 50 nM
--
MOLECULE: CC(C)(C)[C@H](NC(=O)COCCN1CCN(c2ccc(C(=O)N[C@H]3C(C)(C)[C@H](Oc4ccc(C#N)c(Cl)c4)C3(C)C)cn2)CC1)C(=O)N1C[C@H](O)C[C@H]1C(=O)NCc1cc(F)ccc1F
RESULT: > 501 nM
--
MOLECULE: Cc1ncsc1-c1ccc([C@H](C)NC(=O)[C@@H]2C[C@@H](OC(=O)CCC(=O)O)CN2C(=O)[C@@H](NC(=O)COCCN2CCN(c3ccc(C(=O)N[C@H]4C(C)(C)[C@H](Oc5ccc(C#N)c(Cl)c5)C4(C)C)cn3)CC2)C(C)(C)C)cc1
RESULT: < 50 nM
--
MOLECULE: CC(C)C[C@H](OCCN1CCN(c2ccc(C(=O)N[C@H]3C(C)(C)[C@H](Oc4ccc(C#N)c(Cl)c4)C3(C)C)cn2)CC1)C(=O)N[C@H](C(=O)N1C[C@H](O)C[C@H]1C(=O)NCc1ccc(Cl)cc1)C(C)(C)C
RESULT: > 501 nM
